Tested on: rodent test subjects
Test: Muscle rigidity in rodents
Settings: vs morphine
recorded.endpoint: muscle rigidity

[[record]]
molecule = "C=CCN1C[C@H](C)N([C@@H](c2cccc(O)c2)c2cccc(C(=O)N(C)c3ccccc3)c2)C[C@H]1C [Example 9]"
study_target = "rodent test subjects"
reported_value = "much reduced extent"

[[record]]
molecule = "C=CCN1C[C@H](C)N([C@@H](c2cccc(O)c2)c2cccc(C(=O)N(CC)c3ccc(F)cc3)c2)C[C@H]1C [Example 28]"
study_target = "rodent test subjects"
reported_value = "much reduced extent"

[[record]]
molecule = "C=CCN1C[C@H](C)N([C@@H](c2cccc(O)c2)c2cccc(C(=O)N(C)c3ccc(OC)cc3)c2)C[C@H]1C [Example 30]"
study_target = "rodent test subjects"
reported_value = "much reduced extent"

[[record]]
molecule = "C=CCN1C[C@H](C)N([C@@H](c2cccc(O)c2)c2cccc(C(=O)N(CC)c3ccccc3)c2)C[C@H]1C [Example 12]"
study_target = "rodent test subjects"
reported_value = "much reduced extent"

[[record]]
molecule = "C=CCN1C[C@H](C)N([C@@H](c2cccc(O)c2)c2cccc(C(=O)N(C)c3ccc(F)cc3)c2)C[C@H]1C [Example 10]"
study_target = "rodent test subjects"
reported_value = "much reduced extent"

[[record]]
molecule = "C=CCN1C[C@H](C)N([C@@H](c2cccc(O)c2)c2cccc(C(=O)N(C)c3cccc(F)c3)c2)C[C@H]1C [Example 16]"
study_target = "rodent test subjects"
reported_value = "much reduced extent"

[[record]]
molecule = "C=CCN1C[C@H](C)N([C@@H](c2cccc(O)c2)c2cccc(C(=O)N(CCC)c3ccccc3)c2)C[C@H]1C [Example 27]"
study_target = "rodent test subjects"
reported_value = "much reduced extent"

[[record]]
molecule = "C=CCN1C[C@H](C)N([C@@H](c2cccc(O)c2)c2cccc(C(=O)N(CC)CC)c2)C[C@H]1C [Example 1]"
study_target = "rodent test subjects"
reported_value = "much reduced extent"


Next molecule, muscle rigidity to be filled in.
*Q* Provide measured muscle rigidity value, entry: C=CCN1C[C@H](C)N([C@@H](c2cccc(O)c2)c2cccc(C(=O)N(C)c3ccccc3F)c2)C[C@H]1C [Example 31]
*A* much reduced extent
